target under test: FGFR4 (Homo sapiens (Human), UniProt P22455)
Sequence (P22455 22-802): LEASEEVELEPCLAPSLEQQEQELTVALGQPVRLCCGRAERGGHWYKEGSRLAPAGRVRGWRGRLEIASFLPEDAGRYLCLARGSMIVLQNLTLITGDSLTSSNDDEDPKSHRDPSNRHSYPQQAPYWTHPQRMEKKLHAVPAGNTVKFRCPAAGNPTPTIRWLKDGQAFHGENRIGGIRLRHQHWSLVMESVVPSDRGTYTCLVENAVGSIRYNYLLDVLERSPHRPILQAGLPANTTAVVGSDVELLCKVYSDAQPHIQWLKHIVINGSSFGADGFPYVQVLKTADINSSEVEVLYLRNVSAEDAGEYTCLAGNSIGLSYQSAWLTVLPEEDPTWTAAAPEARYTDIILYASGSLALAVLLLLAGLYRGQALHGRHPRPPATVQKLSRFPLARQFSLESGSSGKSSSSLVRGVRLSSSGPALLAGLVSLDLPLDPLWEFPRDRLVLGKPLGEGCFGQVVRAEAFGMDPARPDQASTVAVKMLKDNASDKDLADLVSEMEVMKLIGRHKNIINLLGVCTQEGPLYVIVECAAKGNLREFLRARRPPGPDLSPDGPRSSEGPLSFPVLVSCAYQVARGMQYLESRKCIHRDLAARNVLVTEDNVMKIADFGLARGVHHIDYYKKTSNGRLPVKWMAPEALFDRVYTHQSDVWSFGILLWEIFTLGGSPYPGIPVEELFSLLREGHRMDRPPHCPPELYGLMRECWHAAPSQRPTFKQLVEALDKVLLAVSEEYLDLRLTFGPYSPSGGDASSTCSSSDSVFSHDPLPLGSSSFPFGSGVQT
protocol details: FGFR Enzymatic Assay (peptide phosphorylation, FRET), FGFR4
Assay type: biochemical
test conditions: ratio of IC50 data showing FGFR4 selectivity; pre-incubated for 5 to 10 minutes
parameter: FGFR3/FGFR4

In: For COc1cc(OC)c(F)c(N2Cc3cnc(-c4cncc(NS(C)(=O)=O)c4)cc3C3(CC3)C2=O)c1F [Example 15] , what is its reported FGFR3/FGFR4?
Out: >10

In: Next: COc1cc(OC)c(F)c(N2Cc3cnc(-c4cncc(C#N)c4)cc3C3(CC3)C2=O)c1F [Example 8]
Out: >10

In: And what about the molecule COc1cc(OC)c(F)c(N2Cc3cnc(-c4cccnc4)cc3C3(CC3)C2=O)c1F [Example 9] ?
Out: >1

In: Now consider COc1cc(OC)c(F)c(N2Cc3cnc(-c4cncc(N5CCOCC5)c4)cc3C3(CC3)C2=O)c1F [Example 6] .
Out: >50

In: Let us now turn to COc1cc(OC)c(F)c(N2Cc3cnc(-c4cncc(N)c4)cc3C3(CC3)C2=O)c1F [Example 4]
Out: >5

In: Moving on to COc1cc(OC)c(F)c(N2Cc3cnc(-c4cncc(S(=O)(=O)N5CCOCC5)c4)cc3C3(CC3)C2=O)c1F [Example 14]
Out: >5

In: COc1cc(OC)c(F)c(N2Cc3cnc(-c4cc(N)cnc4C)cc3C3(CC3)C2=O)c1F [Example 7] , same question.
Out: >10

In: Next up: COc1cc(OC)c(F)c(N2Cc3cnc(-c4cncc(Cl)c4)cc3C3(CC3)C2=O)c1F [Example 11]
Out: >25

====

For each record, write down the corresponding FGFR2/FGFR4.
target under test: FGFR4 (Homo sapiens (Human), UniProt P22455)
protocol details: FGFR Enzymatic Assay (peptide phosphorylation, FRET), FGFR4
Type: biochemical
test conditions: ratio of IC50 data showing FGFR4 selectivity; pre-incubated for 5 to 10 minutes

In: Which FGFR2/FGFR4 is reported for this compound? COc1cncc(-c2cc3c(cn2)CN(c2c(F)c(OC)cc(OC)c2F)C(=O)C32CC2)c1
Out: >10

In: Moving on to COc1cc(OC)c(F)c(N2Cc3cnc(-c4cncc(-n5ccnc5)c4)cc3C3(CC3)C2=O)c1F
Out: >25

In: Request: COc1cc(OC)c(F)c(N2Cc3cnc(-c4cncc(Cl)c4)cc3C3(CC3)C2=O)c1F
Out: >20

In: Similarly, COc1cc(OC)c(F)c(N2Cc3cnc(-c4cncc(C#N)c4)cc3C3(CC3)C2=O)c1F ?
Out: >10

In: Entry to check: COc1cc(OC)c(F)c(N2Cc3cnc(-c4cc(N)cnc4C)cc3C3(CC3)C2=O)c1F
Out: >10

In: COc1cc(OC)c(F)c(N2Cc3cnc(-c4cncc(F)c4)cc3C3(CC3)C2=O)c1F ?
Out: >5

In: Continue with COc1cc(OC)c(F)c(N2Cc3cnc(-c4cncc(N5CCOCC5)c4)cc3C3(CC3)C2=O)c1F
Out: >100

In: Now the same for COc1cc(OC)c(F)c(N2Cc3cnc(-c4cc(N)ccc4C)cc3C3(CC3)C2=O)c1F
Out: >25

In: Then this compound: COc1cc(OC)c(F)c(N2Cc3cnc(-c4cc(N)ccc4C#N)cc3C3(CC3)C2=O)c1F
Out: >25
